Target: UniProt:P43220
Sequence (P43220 24-463): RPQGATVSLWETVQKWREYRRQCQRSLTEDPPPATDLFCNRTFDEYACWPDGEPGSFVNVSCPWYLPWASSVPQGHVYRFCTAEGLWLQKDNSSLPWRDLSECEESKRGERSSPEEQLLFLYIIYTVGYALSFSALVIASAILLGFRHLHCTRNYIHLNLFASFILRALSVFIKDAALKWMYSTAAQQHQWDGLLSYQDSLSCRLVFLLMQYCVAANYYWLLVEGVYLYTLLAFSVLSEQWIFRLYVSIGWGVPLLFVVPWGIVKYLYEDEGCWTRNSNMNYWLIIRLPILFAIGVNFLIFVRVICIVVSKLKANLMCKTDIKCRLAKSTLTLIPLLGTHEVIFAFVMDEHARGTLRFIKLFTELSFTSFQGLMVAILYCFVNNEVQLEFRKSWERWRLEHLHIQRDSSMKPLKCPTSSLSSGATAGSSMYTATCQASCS
Test: Luciferase reporter assay, HEK293/CRE-Luc/hGLP1R (Example 17)
Type: cell-based
Set-up: engineered to express full-length human GLP1R, cynomolgus GLP1R; expressed in transfected cells; host or cells: HEK293/CRE-Luc
Details: HEK293/CRE-Luc/hGLP1R; relative to M2361 of the same experiment
Where a SMILES comes first, the peptide text is derived from it. [ ]: non-standard residue; d: D form. The star is where a group is joined. Bip(2'-Et,4'-O(CH2)4NH2) = CCc1cc(OCCCCN)ccc1-c1ccc(C[C@H](N)C(=O)O)cc1; Nva(5-(3,5-Me2Ph)) = Cc1cc(C)cc(CCC[C@H](N)C(=O)O)c1; Ala(1H-tetrazol-5-yl) = N[C@@H](Cc1nnn[nH]1)C(=O)O; αMePhe(2-F) = C[C@](N)(Cc1ccccc1F)C(=O)O; Desaminohistidyl = O=C(CCc1c[nH]cn1)*; X8 = O=C([C@H]1CCN(CCc2cnc[nH]2)C1)*; X6 = CC(C)(C(=O)NO)C(=O)*; X4 = CC(C)(C(=O)O)C(=O)*; Aib = CC(C)(N)C(=O)O
Relative Signal:Noise (% M2361) by entry:
Please state the number and follow it with the unit.

For orientation, consider the following solved cases.
1. CCc1cc(OCCCCN)ccc1-c1ccc(C[C@H](NC(=O)[C@H](CC(=O)O)NC(=O)[C@H](CO)NC(=O)[C@@H](NC(=O)[C@](C)(Cc2ccccc2F)NC(=O)[C@@H](NC(=O)CNC(=O)[C@H](Cc2nn[nH]n2)NC(=O)[C@H]2CCN(CCc3cnc[nH]3)C2)[C@@H](C)O)[C@@H](C)O)C(=O)N[C@@H](CCCc2cc(C)cc(C)c2)C(N)=O)cc1 [P16] (X8-[Ala(1H-tetrazol-5-yl)]GT[αMePhe(2-F)]TSD[Bip(2'-Et,4'-O(CH2)4NH2)][Nva(5-(3,5-Me2Ph))]-NH2) | 83.8%
2. CCc1cc(OCCCCN)ccc1-c1ccc(C[C@H](NC(=O)[C@H](CC(=O)O)NC(=O)[C@H](CO)NC(=O)[C@@H](NC(=O)[C@](C)(Cc2ccccc2F)NC(=O)[C@@H](NC(=O)CNC(=O)[C@@H](N)Cc2nn[nH]n2)[C@@H](C)O)[C@@H](C)O)C(=O)N[C@@H](CCCc2cc(C)cc(C)c2)C(N)=O)cc1 [P2] | 93.4%
3. CCc1cc(OCCCCN)ccc1-c1ccc(C[C@H](NC(=O)[C@H](CC(=O)O)NC(=O)[C@H](CO)NC(=O)[C@@H](NC(=O)[C@](C)(Cc2ccccc2F)NC(=O)[C@@H](NC(=O)CNC(=O)[C@H](Cc2nn[nH]n2)NC(=O)C(C)(C)C(=O)NO)[C@@H](C)O)[C@@H](C)O)C(=O)N[C@@H](CCCc2cc(C)cc(C)c2)C(N)=O)cc1 [P5] (X6-[Ala(1H-tetrazol-5-yl)]GT[αMePhe(2-F)]TSD[Bip(2'-Et,4'-O(CH2)4NH2)][Nva(5-(3,5-Me2Ph))]-NH2) | 76.9%
4. CCc1cc(OCCCCNC(=O)[C@H](CO)NC(=O)CNC(=O)CNC(=O)CNC(=O)CNC(=O)CCC(=O)N2Cc3ccccc3C#Cc3ccccc32)ccc1-c1ccc(C[C@H](NC(=O)[C@H](CC(=O)O)NC(=O)[C@H](CO)NC(=O)[C@@H](NC(=O)[C@](C)(Cc2ccccc2F)NC(=O)[C@@H](NC(=O)CNC(=O)[C@H](Cc2nn[nH]n2)NC(=O)C(C)(C)C(=O)NCCc2cnc[nH]2)[C@@H](C)O)[C@@H](C)O)C(=O)N[C@@H](CCCc2cc(C)cc(C)c2)C(=O)Nc2ccccc2)cc1 [LP15, DIBAC- suc-G4S- P23] | 73.2%
5. CCc1cc(OCCCCNC(=O)CCOCCOCCOCCOCCOCCOCCOCCOCCOCCOCCOCCOCCOCCOCCOCCOCCOCCOCCOCCOCCOCCOCCOCCOCCNC(=O)CCC(=O)N2Cc3ccccc3-c3nn[nH]c3-c3ccccc32)ccc1-c1ccc(C[C@H](NC(=O)[C@H](CC(=O)O)NC(=O)[C@H](CO)NC(=O)[C@@H](NC(=O)[C@](C)(Cc2ccccc2F)NC(=O)[C@@H](NC(=O)CNC(=O)[C@H](Cc2nn[nH]n2)NC(=O)C(C)(C)C(=O)NCCc2cnc[nH]2)[C@@H](C)O)[C@@H](C)O)C(=O)N[C@@H](CCCc2cc(C)cc(C)c2)C(C)=O)cc1 [M2547] | 81.7%

The recorded Relative Signal:Noise (% M2361) with UniProt:P43220 for CCc1cc(OCCCCN)ccc1-c1ccc(C[C@H](NC(=O)[C@H](CC(=O)O)NC(=O)[C@H](CO)NC(=O)[C@@H](NC(=O)[C@](C)(Cc2ccccc2F)NC(=O)[C@@H](NC(=O)CNC(=O)[C@H](Cc2nn[nH]n2)NC(=O)CNC(=O)CCc2cnc[nH]2)[C@@H](C)O)[C@@H](C)O)C(=O)N[C@@H](CCCc2cc(C)cc(C)c2)C(N)=O)cc1 [P12] (Desaminohistidyl-G[Ala(1H-tetrazol-5-yl)]GT[αMePhe(2-F)]TSD[Bip(2'-Et,4'-O(CH2)4NH2)][Nva(5-(3,5-Me2Ph))]-NH2) was 116.2%

The recorded Relative Signal:Noise (% M2361) with UniProt:P43220 for CCc1cc(OCCCCN)ccc1-c1ccc(C[C@H](NC(=O)[C@H](CC(=O)O)NC(=O)[C@H](CO)NC(=O)[C@@H](NC(=O)[C@](C)(Cc2ccccc2F)NC(=O)[C@@H](NC(=O)CNC(=O)[C@H](Cc2nn[nH]n2)NC(=O)C(C)(C)C(=O)O)[C@@H](C)O)[C@@H](C)O)C(=O)N[C@@H](CCCc2cc(C)cc(C)c2)C(N)=O)cc1 [P3] (X4-[Ala(1H-tetrazol-5-yl)]GT[αMePhe(2-F)]TSD[Bip(2'-Et,4'-O(CH2)4NH2)][Nva(5-(3,5-Me2Ph))]-NH2) was 70.3%

The recorded Relative Signal:Noise (% M2361) with UniProt:P43220 for CCc1cc(OCCCCN)ccc1-c1ccc(C[C@H](NC(=O)[C@H](CC(=O)O)NC(=O)[C@H](CO)NC(=O)[C@@H](NC(=O)[C@](C)(Cc2ccccc2F)NC(=O)[C@@H](NC(=O)CNC(=O)[C@H](Cc2nn[nH]n2)NC(=O)C(C)(C)NC(=O)[C@@H](N)Cc2ccc(O)cc2)[C@@H](C)O)[C@@H](C)O)C(=O)N[C@@H](CCCc2cc(C)cc(C)c2)C(N)=O)cc1 [P19] (H-Y[Aib][Ala(1H-tetrazol-5-yl)]GT[αMePhe(2-F)]TSD[Bip(2'-Et,4'-O(CH2)4NH2)][Nva(5-(3,5-Me2Ph))]-NH2) was 119.4%

The recorded Relative Signal:Noise (% M2361) with UniProt:P43220 for CCc1cc(OCCCCn2cc(COCCOCCOCCOCCOCCOCCOCCOCCN)nn2)ccc1-c1ccc(C[C@H](NC(=O)[C@H](CC(=O)O)NC(=O)[C@H](CO)NC(=O)[C@@H](NC(=O)[C@](C)(Cc2ccccc2F)NC(=O)[C@@H](NC(=O)CNC(=O)[C@H](Cc2nn[nH]n2)NC(=O)C(C)(C)C(=O)NCCc2cnc[nH]2)[C@@H](C)O)[C@@H](C)O)C(=O)N[C@@H](CCCc2cc(C)cc(C)c2)C(N)=O)cc1 [M3190] was 113.3%

The recorded Relative Signal:Noise (% M2361) with UniProt:P43220 for CCc1cc(OCCCCN)ccc1-c1ccc(C[C@H](NC(=O)[C@H](CC(=O)O)NC(=O)[C@H](CO)NC(=O)[C@@H](NC(=O)[C@](C)(Cc2ccccc2F)NC(=O)[C@@H](NC(=O)CNC(=O)[C@H](Cc2nn[nH]n2)NC(=O)[C@H](C)NC(=O)[C@H](Cc2c[nH]cn2)NC(=O)[C@@H](N)CCC(N)=O)[C@@H](C)O)[C@@H](C)O)C(=O)N[C@@H](CCCc2cc(C)cc(C)c2)C(N)=O)cc1 [P13] (H-QHA[Ala(1H-tetrazol-5-yl)]GT[αMePhe(2-F)]TSD[Bip(2'-Et,4'-O(CH2)4NH2)][Nva(5-(3,5-Me2Ph))]-NH2) was 105.6%
